Biological target: Potassium voltage-gated channel subfamily KQT member 2 (Rattus norvegicus)
Assay: block of rat KCNQ2 potassium current – cell-based, automated electrophysiology, SAR follow-up (AID 652152)
Conditions: KCNQ2-expressing cells, automated patch-clamp current
Assign IC50 to each entry below.

input_smiles=CC[C@H](C(=O)Nc1ccc(N2CC[C@H](F)C2)cc1)c1ccccc1 result="120 nM"
input_smiles=CC[C@H](C(=O)Nc1ccccc1N1CCN(c2ccncc2C)CC1)c1ccccc1 result="21200 nM"

Okay, now this compound:
Requested field: IC50. Item: CC[C@H](C(=O)Nc1ccc(N2CCC(F)(F)CC2)cc1)c1ccccc1 750 nM
